All values here come from PubChem BioAssay (NCI).

System: MCF7 breast
Assay: NCI-60 one-dose screen, 48 h (100 = growth as untreated, 0 = no growth, -100 = all killed)
Details: 10 µM unless noted
The panel holds about 83,000 compounds, 20% with a hit somewhere; the sample as a whole holds those more often.
Some compounds, each annotated with its measured growth.
measured metric: growth (%)

In [3]: df
Out[3]:
                                   compound   val
0        CCOC(=O)[C@@H]1CSC(CC)=C(C(=O)O)N1   108
1  CCN(CC)CCCCCNc1cc(OC(=O)c2ccc(Cl)cc2)cc2cccnc12  86.5
2  COc1cc(/C=C/C(=O)c2ccc(F)cc2)ccc1OCCCCOc1ccc(/C=C/C(=O)c2c(C)nc3ccccc3c2C)cc1OC  80.1
3  O=C(C[C@]1(O)C(=O)Nc2ccccc21)c1cccc(C(F)(F)F)c1  81.2
4  Nc1nc2ccccc2c2c1S(=O)(=O)c1ccc(Cl)cc1C2=O  9.68
5  CC(C)=CCC[C@](C)(O)[C@H]1CC[C@]2(C)[C@@H]1CC[C@@H]1[C@@]3(C)C/C(=C/c4ccco4)C(=O)C(C)(C)[C@@H]3CC[C@]12C  97.2
6  Cc1ccc(NC(=O)c2sc3nc(C)c(Br)c(C)c3c2N)cc1  59.1
7  Cc1ccc(-c2nc([P+](c3ccccc3)(c3ccccc3)c3ccccc3)c(S(=O)(=O)c3ccc(C)cc3)o2)cc1  13.5
8  COc1ccc(C(O)c2cc3c(N)c(C(=O)Nc4cccc(Br)c4)sc3nc2C)cc1 (centres undefined)  9.88

###

Tested on: A549/ATCC NSCLC
Assay: NCI-60 one-dose screen, 48 h (100 = growth as untreated, 0 = no growth, -100 = all killed)
Conditions: 10 µM unless noted
The panel holds about 83,000 compounds, 20% with a hit somewhere; the sample as a whole holds those more often.
Each entry gets condition not met if its growth stays under 80%, and condition met if its growth is 80% or above.

>>> print(df.to_string())
                                    molecule              class
 0  N#Cc1ccc2c(c1)C(=O)c1c-2n(CCCN)c(=O)c2cc([N+](=O)[O-])ccc12  condition not met
 1  O=C(O)CCCN1C(=O)/C(=C/c2cn(-c3ccccc3)nc2-c2ccc([N+](=O)[O-])cc2)SC1=S  condition not met
 2       CC(C)COc1nc2c(c(=O)n(C)c(=O)n2C)n1C      condition met
 3  COC(=O)c1nc(-c2ccccc2)oc1S(=O)(=O)Cc1ccccc1      condition met
 4  COc1cc(/C=C2/C=C(c3ccccc3)N(CCc3ccc(S(N)(=O)=O)cc3)C2=O)cc(OC)c1OC      condition met
 5  COc1ccc(C/C(C)=C(\c2ccc(Cl)cc2)c2ccc(OCCN3CCCCC3)cc2)cc1      condition met
 6  Cc1nc2sc(C(=O)Nc3ccc(Br)cc3)c(N)c2cc1C(O)c1ccccc1 (stereo not drawn)  condition not met
 7  CN(C)S(=O)(=O)c1cccc(C(=O)Nc2nc(-c3ccc(F)c(F)c3)cs2)c1  condition not met
 8  CC(C)=CCC[C@](C)(O)[C@H]1CC[C@]2(C)[C@@H]1CC[C@@H]1[C@@]3(C)C/C(=C/c4ccco4)C(=O)C(C)(C)[C@@H]3CC[C@]12C      condition met
 9  C=C1C(=O)O[C@H]2[C@H]1CC/C(COC(=O)/C=C\C(=O)NCc1ccc(Cn3c(=O)sn(CCI)c3=O)cc1)=C\CC[C@@]1(C)O[C@@H]21      condition met
10  CC/C=C\C[C@H](O)C/C=C1/C(=O)C=C[C@@H]1C/C=C\CCCC(=O)N(C)C  condition not met
11  O=C1c2ccc3c4c5ccc(c24)C(=O)N1CCCOCCCCOCCCNCc1ccc(cc1)CNCCCOCCCCOCCCN(C3=O)C5=O  condition not met
12  COC1=CC(c2ccc[nH]2)=N/C1=C\c1[nH]c(C)c(C(=O)OC(C)C)c1C  condition not met
13  O=C(CSc1nnc(-c2cnccn2)n1-c1ccccc1)c1ccc(Cl)cc1      condition met
14  NS(=O)(=O)c1ccc(N=Nc2c(O)n(Cc3ccccc3)c3ccc(Cl)cc23)cc1      condition met
15  COc1ccc(-c2ccc(=O)oc2-c2cc(OC)c(OC)c(OC)c2)cc1O  condition not met
